Target: HePTP (Homo sapiens)
Sequence (P35236 1-360): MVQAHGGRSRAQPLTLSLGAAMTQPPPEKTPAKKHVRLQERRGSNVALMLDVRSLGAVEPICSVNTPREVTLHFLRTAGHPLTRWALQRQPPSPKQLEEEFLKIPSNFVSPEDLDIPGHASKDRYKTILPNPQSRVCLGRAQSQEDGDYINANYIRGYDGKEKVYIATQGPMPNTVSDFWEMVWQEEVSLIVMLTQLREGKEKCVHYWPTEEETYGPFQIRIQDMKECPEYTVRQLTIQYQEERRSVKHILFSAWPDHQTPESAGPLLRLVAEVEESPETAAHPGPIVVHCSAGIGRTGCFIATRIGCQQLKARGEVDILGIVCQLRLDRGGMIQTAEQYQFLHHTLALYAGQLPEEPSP
Test: HePTP dose-response confirmation screening
Format: biochemical
Conditions: Hill coefficient of the dose-response curve
measurement.name: n / nH (Hill coefficient)

Below, each entry is followed by its recorded n / nH (Hill coefficient) result.
>>> numeric_value("O=C(c1ccc(=O)oc1)N1CCOCC1")
1.02
>>> numeric_value("CCn1c(SCC(=O)O)nc2c(c1=O)C1=C(CCC1)C2")
4.48
>>> numeric_value("CCc1ccc(OCC(=O)NC2=CC(=O)/C(=C3/Nc4ccccc4O3)C=C2)cc1")
0.29

1: CCn1c(SC(C)C(=O)O)nc2c(c1=O)C1=C(CCC1)C2 (centres unmarked)
2: CSc1nc(N(CCO)CCO)c2sc3nc(-c4ccco4)c4c(c3c2n1)CCC4
Q: Please state the entry with greater n / nH (Hill coefficient) among 1 and 2 . Write down the label attached to your selection.
A: 1
(1: 3.77, 2: 2.28)

---

Molecular target: UniProt:P35236
Assay: HePTP dose-response confirmation screening
Format: biochemical
Conditions: Hill coefficient of the dose-response curve
measurement.name: n / nH (Hill coefficient)

>>> numeric_value("O=C(O)C1Nc2c(O)cccc2C2C=CCC12 (stereo not shown)")
2.11
>>> numeric_value("O=C(O)C(O)c1ccco1 (stereo not shown) [2-(2-Furyl)-2-hydroxy-acetic acid]")
1.79
>>> numeric_value("COc1ccc(Br)cc1C(=O)Nc1cccc(-c2nnc(-c3ccco3)o2)c1")
1.47
>>> numeric_value("C/C(N)=C(\\C#N)C(=O)CSc1nnc(Nc2c(C)cccc2C)s1")
2.66
>>> numeric_value("Cc1ccc(C)n1-c1cccc(C(=O)O)c1")
2.59

a: CCC1=NC2Sc3ccccc3C(=O)C2C(=O)N1Cc1ccco1 (stereo not shown)
b: COc1ccc(N2Cc3cccc(C(=O)O)c3C2=O)cc1
Q: // select label with min value of measured n / nH (Hill coefficient) from [ a , b ] Write down the label attached to your selection.
A: a
(a: 1.27, b: 3.7)

I: CC(C)Cn1c(N)c(C(=O)COC(=O)c2cc(-c3ccco3)nc3ccccc23)c(=O)n(C)c1=O
II: Cc1cccc(Nc2nn3c(=O)c4ccccc4nc3s2)c1
Q: // select label with min value of measured n / nH (Hill coefficient) from [ I , II ] Write down the label attached to your selection.
A: II
(II: 1.32, I: 2.48)

---

Target: HePTP (Homo sapiens, UniProt P35236)
Sequence (P35236 1-360): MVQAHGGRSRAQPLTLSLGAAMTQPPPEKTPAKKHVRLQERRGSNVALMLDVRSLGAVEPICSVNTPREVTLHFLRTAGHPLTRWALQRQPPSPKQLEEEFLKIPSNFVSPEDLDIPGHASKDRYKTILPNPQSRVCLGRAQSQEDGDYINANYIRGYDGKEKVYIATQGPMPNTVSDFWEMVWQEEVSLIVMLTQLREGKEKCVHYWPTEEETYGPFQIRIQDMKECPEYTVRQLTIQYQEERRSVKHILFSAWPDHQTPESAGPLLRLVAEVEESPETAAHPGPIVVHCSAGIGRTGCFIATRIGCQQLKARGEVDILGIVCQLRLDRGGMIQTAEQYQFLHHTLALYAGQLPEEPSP
Assay: HePTP HTS primary screen (colorimetric pNPP / Biomol Green)
Type: biochemical
Conditions: 20 μM compound; read-out: % Inhib. at 20 μM
measurement.name: inhibition at 20 µM (%)

Below, each entry is followed by its recorded inhibition at 20 µM result.
>>> numeric_value("O=C(O)c1c[nH]c2ccc(S(=O)(=O)N3CCN(c4ccc(F)cc4)CC3)cc2c1=O")
103
>>> numeric_value("O=C(c1ccc(=O)oc1)N1CCOCC1")
54.1
>>> numeric_value("CCn1c(SC(C)C(=O)O)nc2c(c1=O)C1=C(CCC1)C2 (centres unmarked)")
86

1: COc1ccc(Br)cc1C(=O)Nc1cccc(-c2nnc(-c3ccco3)o2)c1
2: COc1ccc(N2Cc3cccc(C(=O)O)c3C2=O)cc1
Q: Please state the entry with greater inhibition at 20 µM among 1 and 2 . Write down the label attached to your selection.
A: 1

The values you see were collected from patent US20120095032A1.
